tested on: CCRIS mutagenicity, Ames/micronucleus/aberration tests; assay: CCRIS mutagenicity studies; settings: Test System: AMES SALMONELLA TYPHIMURIUM; Strain/Indicator: TA1535; Metabolic Activation: RAT, LIVER, S-9, AROCLOR 1254 (10%); Method: PREINCUBATION
Calls of active or inactive are those of the source. The rule behind the calls is not given here.
The categories you may choose from are active, inactive

Ask | GET /call?item= CCC(C)(C)c1ccc(O)cc1 returns the recorded outcome of this test.
Reply | inactive

Ask | Recorded test call requested for O=C1N(CO)C(O)C(O)N1CO (stereo not drawn)
Reply | inactive

Ask | Which result was noted for this molecule in the test: CCN(CC)C(=S)SSC(=S)N(CC)CC
Reply | inactive

Ask | For ClC(Cl)(Cl)CC1CO1 (stereo not drawn) , which call appears in the assay record?
Reply | inactive

Ask | // outcome(item) with item = C=CCN(CC=C)CC=C
Reply | inactive

Ask | Query: recorded result category for C=C(C)C(=O)OCC(Br)CBr (stereo not drawn) in this test
Reply | active

Ask | # fetch the recorded call for CC(=O)NNc1ccccc1 here
Reply | inactive

Ask | Please indicate how the test categorized CCCCC(CC)COCCC#N (stereo not drawn) .
Reply | inactive

###

test system: CCRIS mutagenicity, Ames/micronucleus/aberration tests; test: CCRIS mutagenicity studies; conditions: Test System: AMES SALMONELLA TYPHIMURIUM; Strain/Indicator: TA1977; Metabolic Activation: RAT, LIVER, S-9, PHENOBARBITAL; Method: STANDARD PLATE
The source made the active and inactive calls. No rule for the calls is given here.
// allowed return values: active, inactive

Ask | # lookup: test call for O=[N+]([O-])c1cccc2c1[nH]c1ccccc12
Reply | inactive

Ask | Name the outcome recorded for O=[N+]([O-])c1cccc2[nH]c3ccccc3c12 in the assay.
Reply | inactive

Ask | Could you please tell me the result logged for CC(=O)Nc1ccc2[nH]c3ccccc3c2c1 in this assay?
Reply | inactive

Ask | Call for entry Nc1cc2c(cc1[N+](=O)[O-])[nH]c1ccccc12 :
Reply | active

###

test system: CCRIS mutagenicity, Ames/micronucleus/aberration tests; test: CCRIS mutagenicity studies; conditions: Test System: AMES SALMONELLA TYPHIMURIUM; Strain/Indicator: TA1537; Metabolic Activation: NONE; Method: STANDARD PLATE
Active and inactive are the calls of the source. The rule behind the calls is not given here.
The categories you may choose from are active, inactive

Ask | Name the outcome recorded for O=C([O-])c1ccc2ccccc2c1.[Mn+2].[O-]C(O)c1ccc2ccccc2c1 in the assay.
Reply | inactive

Ask | For this compound, state the assay outcome: c1ccc2c(c1)-c1cc3ccc4ccccc4c3cc1C1OC21 (stereo not drawn)
Reply | active

Ask | // param item: CCO[Si](OCC)(OCC)OCC ; yields the recorded call
Reply | inactive

Ask | Status in this test for O=C(O)CCCC[C@@H]1SC[C@@H]2NC(=O)N[C@@H]21 ?
Reply | inactive

Ask | GET /call?item= COc1ccc2nc(N)sc2c1 returns the recorded outcome of this test.
Reply | inactive

Ask | What is the recorded call for this compound in the test? Cc1ccc(O)c(N)c1
Reply | inactive

Ask | Check the results log: what was the call for CC(=O)O[C@]1(C(C)=O)CC[C@H]2[C@@H]3C4OC4(Cl)C4=CC(=O)[C@@H]5C[C@@H]5[C@]4(C)[C@H]3CC[C@@]21C (stereo partly drawn) ?
Reply | inactive

Ask | Call for entry CC(=O)Oc1ccccc1C(=O)O :
Reply | inactive

Ask | Assay outcome for N#Cc1cc(Br)c(O)c(Br)c1 : what was it?
Reply | inactive

Ask | In this assay, the call recorded for OCl was what?
Reply | inactive

Ask | Please let me know the test result on file for Nc1nc(Cl)cc(Cl)n1 .
Reply | inactive

Ask | // outcome(item) with item = C=CC(=O)OCCCCC
Reply | inactive

Ask | Outcome? CCOC(=O)CC1OCCc2c1[nH]c1c(CC)c(O)ccc21 (stereo not drawn)
Reply | inactive

Cited source for all entries: PubChem BioAssay AID1259407
